# study_system: T1, Soluble recombinant human CD47-Fc (R&D Systems) (human, UniProt Q08722 19-139)
# T1 construct: Bought reagent; also called rhCD47; human CD47 (plate-coated); not shown: Fc part of the bought fusion protein
# test: saturating ELISA on plates coated with human CD47; column head 'Average EC50 (nM)'
measurement_type: pEC50
pEC50 here is simply -log10 of the concentration when that concentration is written in mol/L.

The examples below pair each entry with its known result.
hB6H12.20 (antibody, V domains shown, also called hvH5/hvK4; antibody 20 (bin B)) VH: EVQLVESGGGLVQPGGSLRLSCAASGFTFSGYGMSWVRQAPGKGLEWVATITSGGTYTYYADSVKGRFTISRDNSKNTLYLQINSLRAEDTAVYYCARSLAGNAMDYWGQGTLVTVSS VL: DIQMTQSPSSLSASVGDRVTLTCRASQTISNYLAWYQQKPGKVPKLLIKFASTLQSGVPSRFSGSGSGSDFTLTISSLQPEDVATYYCQNGHGFPRTFGQGTKLEIKR: 7.25
mB6H12 (antibody, V domains shown, Murine parental antibody; also called murine B6H12; mouse B6H12) VH: EVQLVESGGDLVKPGGSLKLSCAASGFTFSGYGMSWVRQTPDKRLEWVATITSGGTYTYYPDSVKGRFTISRDNAKNTLYLQIDSLKSEDTAIYFCARSLAGNAMDYWGQGTSVTVSS VL: DIVMTQSPATLSVTPGDRVSLSCRASQTISDYLHWYQQKSHESPRLLIKFASQSISGIPSRFSGSGSGSDFTLSINSVEPEDVGVYYCQNGHGFPRTFGGGTKLEIKR: 7.43
hB6H12.17 (antibody, V domains shown, also called hvH5/hvK1; antibody 17 (bin B)) VH: EVQLVESGGGLVQPGGSLRLSCAASGFTFSGYGMSWVRQAPGKGLEWVATITSGGTYTYYADSVKGRFTISRDNSKNTLYLQINSLRAEDTAVYYCARSLAGNAMDYWGQGTLVTVSS VL: EIVMTQSPDFQSVTPKEKVTLTCRASQTISDYLHWYQQKPDQSPKLLIKFASQSISGVPSRFSGSGSGTDFTLTINSLEAEDAAVYYCQNGHGFPRTFGQGTKLEIKR: 7.37
hB6H12.18 (antibody, V domains shown, also called hvH5/hvK2; antibody 18 (bin B)) VH: EVQLVESGGGLVQPGGSLRLSCAASGFTFSGYGMSWVRQAPGKGLEWVATITSGGTYTYYADSVKGRFTISRDNSKNTLYLQINSLRAEDTAVYYCARSLAGNAMDYWGQGTLVTVSS VL: EIVMTQSPDFQSVTPKEKVTLTCRASQTISDYLHWYQQKPDQSPKLLIKFASQSISGVPSRFSGSGSGTDFTLTINSLEAEDAATYYCQNGHGFPRTFGQGTKLEIKR: 7.42

**Q:** Which measured pEC50 value corresponds to Ab47 (antibody, V domains shown, Humanized IgG1; also called alternatively humanized antibody Ab47; humanized IgG1 hB6H12 Ab47) VH: EVQLVESGGGLVQPGGSLRLSCAASGFTFSGYGMSWVRQAPGKGLEWVATITSGGTYTYYPDSVKGRFTISRDNAKNSLYLQMNSLRAEDTAVYYCARSLAGNAMDYWGQGTLVTVSS VL: EIVLTQSPATLSLSPGERATLSCRASQTISDYLHWYQQKPGQAPRLLIKFASQSISGIPARFSGSGSGTDFTLTISSLEPEDFAVYYCQNGHGFPRTFGQGTKVEIKR ?
**A:** 7.80

**Q:** I have this binder here, hB6H12.19 (antibody, V domains shown, also called hvH5/hvK3; antibody 19 (bin B)) VH: EVQLVESGGGLVQPGGSLRLSCAASGFTFSGYGMSWVRQAPGKGLEWVATITSGGTYTYYADSVKGRFTISRDNSKNTLYLQINSLRAEDTAVYYCARSLAGNAMDYWGQGTLVTVSS VL: EIVMTQSPDFQSVTPKEKVTLTCRASQTISDYLHWYQQKPDQSPKLLIKFASQSISGVPSRFSGSGSGSDFTLTINSLEAEDAATYYCQNGHGFPRTFGQGTKLEIKR , and I need its recorded pEC50.
**A:** 7.26
